Experiment: Aqueous solubility of the compound at pH 6.8
Type: physicochemical
Property: solubility

                               input_smiles    property  result_value
0  Cc1cc(NC(=O)CCNC(=O)Nc2nc(C)c(-c3ccc(-n4cccn4)cc3)s2)no1  solubility     < 2 µg/mL

---

Target: Phosphatidylinositol 4,5-bisphosphate 3-kinase catalytic subunit gamma isoform (Homo sapiens, UniProt P48736)
Sequence (P48736 whole entry, canonical isoform): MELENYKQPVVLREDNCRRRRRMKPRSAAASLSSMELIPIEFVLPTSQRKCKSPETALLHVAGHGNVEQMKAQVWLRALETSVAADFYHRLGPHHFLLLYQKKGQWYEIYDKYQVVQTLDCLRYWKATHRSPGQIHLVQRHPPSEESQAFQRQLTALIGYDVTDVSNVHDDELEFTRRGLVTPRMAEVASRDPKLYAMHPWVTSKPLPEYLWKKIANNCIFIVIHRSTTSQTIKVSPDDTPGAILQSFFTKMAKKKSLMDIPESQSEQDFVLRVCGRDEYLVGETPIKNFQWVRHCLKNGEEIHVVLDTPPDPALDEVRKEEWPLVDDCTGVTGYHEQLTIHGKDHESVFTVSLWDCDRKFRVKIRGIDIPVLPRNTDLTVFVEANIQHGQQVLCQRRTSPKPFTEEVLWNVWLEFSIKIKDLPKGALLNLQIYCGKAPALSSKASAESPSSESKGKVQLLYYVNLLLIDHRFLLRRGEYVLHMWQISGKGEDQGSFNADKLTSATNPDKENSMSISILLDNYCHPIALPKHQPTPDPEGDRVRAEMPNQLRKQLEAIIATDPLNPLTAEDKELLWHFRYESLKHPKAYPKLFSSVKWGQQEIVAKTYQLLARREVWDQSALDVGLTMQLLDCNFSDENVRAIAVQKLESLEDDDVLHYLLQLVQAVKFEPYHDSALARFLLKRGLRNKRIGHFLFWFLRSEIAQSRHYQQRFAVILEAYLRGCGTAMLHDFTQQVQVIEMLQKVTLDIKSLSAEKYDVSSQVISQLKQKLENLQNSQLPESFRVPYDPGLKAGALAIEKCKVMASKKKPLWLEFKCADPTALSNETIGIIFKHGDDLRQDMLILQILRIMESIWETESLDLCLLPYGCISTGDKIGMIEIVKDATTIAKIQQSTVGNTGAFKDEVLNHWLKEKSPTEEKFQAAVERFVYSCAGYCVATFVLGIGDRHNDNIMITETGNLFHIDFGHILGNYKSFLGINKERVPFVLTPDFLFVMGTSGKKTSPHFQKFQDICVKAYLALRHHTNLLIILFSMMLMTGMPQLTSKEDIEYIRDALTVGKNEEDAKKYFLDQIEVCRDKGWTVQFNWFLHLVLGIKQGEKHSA
pKi: −log10 of the molar value.
Property: pKi

>>> df
                               input_smiles  result_value
0  CC(=O)Nc1nc(C)c(-c2ccc(S(C)(=O)=O)c(Cl)c2)s1          7.24
1  CC(=O)Nc1nc(C)c(-c2ccc(S(C)(=O)=O)c(C#N)c2)s1          7.21
2  CC(=O)Nc1nc(C)c(-c2ccc(S(C)(=O)=O)c(Br)c2)s1          7.49
3  Cc1nc(NC(=O)NCCC(=O)OC(C)(C)C)sc1-c1ccc(S(C)(=O)=O)c(F)c1          7.70
